Measurement Target: D(1A) dopamine receptor (Homo sapiens, UniProt P21728)
Sequence (P21728 whole entry): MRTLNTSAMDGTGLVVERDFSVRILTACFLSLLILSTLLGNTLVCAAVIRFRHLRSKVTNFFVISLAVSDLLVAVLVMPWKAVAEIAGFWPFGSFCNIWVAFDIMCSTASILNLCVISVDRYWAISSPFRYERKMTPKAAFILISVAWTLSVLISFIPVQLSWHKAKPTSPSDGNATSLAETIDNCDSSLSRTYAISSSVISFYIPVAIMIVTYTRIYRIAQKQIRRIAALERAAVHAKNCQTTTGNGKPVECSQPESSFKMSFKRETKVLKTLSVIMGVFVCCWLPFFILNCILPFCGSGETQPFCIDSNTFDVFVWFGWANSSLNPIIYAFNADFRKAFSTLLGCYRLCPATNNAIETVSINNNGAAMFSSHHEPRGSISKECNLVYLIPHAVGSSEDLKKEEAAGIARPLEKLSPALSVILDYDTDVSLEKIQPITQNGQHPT
Outcome Measure: Ki (nM)
The answer is to be given in nM; state only the numeric part.

stdin: Return Ki measured with D(1A) dopamine receptor (Homo sapiens, UniProt P21728) given this compound: O=C1CC(CN2CCC(c3noc4cc(F)ccc34)CC2)Cc2ncncc21 (stereo unspecified)
stdout: 135

---

Target protein (sequence): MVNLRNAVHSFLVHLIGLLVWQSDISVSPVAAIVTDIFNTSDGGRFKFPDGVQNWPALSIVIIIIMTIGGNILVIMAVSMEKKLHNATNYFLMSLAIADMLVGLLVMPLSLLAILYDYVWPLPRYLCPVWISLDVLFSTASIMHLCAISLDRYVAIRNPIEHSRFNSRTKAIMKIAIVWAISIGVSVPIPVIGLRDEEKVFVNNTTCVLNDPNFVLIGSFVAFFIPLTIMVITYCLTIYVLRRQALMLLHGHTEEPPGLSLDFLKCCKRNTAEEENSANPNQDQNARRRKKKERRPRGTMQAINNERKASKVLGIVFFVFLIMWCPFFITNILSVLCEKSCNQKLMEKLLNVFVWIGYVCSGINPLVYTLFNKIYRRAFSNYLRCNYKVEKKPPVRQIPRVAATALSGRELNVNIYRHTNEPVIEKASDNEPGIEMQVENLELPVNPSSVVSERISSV
pKi: −log10 of the molar value.
Outcome Measure: pKi

stdin: For the compound CSc1ncc2c(n1)CC(CN1CCC(c3noc4cc(F)ccc34)CC1)CC2=O (stereo unspecified) , what pKi is on record?
stdout: < 5.00
